I'd be grateful if you could share measured relative viability for these entries.
- Test system: NCI-H1395
- EXPERIMENT NOTES: relative viability (nuclei count vs DMSO), 5 days (fraction); higher = more cells survive
- SETTINGS: first compound 0.1 µM

Ask: Dear colleague, I am looking for the recorded relative viability of the following molecule: O=c1cc(N2CCOCC2)oc2c(-c3cccc4c3sc3ccccc34)cccc12 + CC(=O)c1c(C)c2cnc(Nc3ccc(N4CCNCC4)cn3)nc2n(C2CCCC2)c1=O [Palbociclib] (partner 0.5 µM)
Result: 0.634

Ask: Fill blank: measured relative viability of the molecule CCN(CC)CCCCNc1ncc2cc(-c3cc(OC)cc(OC)c3)c(NC(=O)NC(C)(C)C)nc2n1 + CC(=O)c1c(C)c2cnc(Nc3ccc(N4CCNCC4)cn3)nc2n(C2CCCC2)c1=O [Palbociclib] (partner 0.5 µM) is ____.
Result: 0.661

Ask: If you can, please state the reported relative viability value of CCN(CC)CCCCNc1ncc2cc(-c3cc(OC)cc(OC)c3)c(NC(=O)NC(C)(C)C)nc2n1 + CS(=O)(=O)N1CCN(Cc2cc3nc(-c4cccc5[nH]ncc45)nc(N4CCOCC4)c3s2)CC1 [Pictilisib] (partner 1 µM) .
Result: 0.949

Ask: Given O=c1cc(N2CCOCC2)oc2c(-c3cccc4c3sc3ccccc34)cccc12 + N=C(N)NC(=N)NCCc1ccccc1 [Phenformin] (partner 250 µM) , state its recorded relative viability.
Result: 0.417

Ask: Any idea what relative viability was measured for O=c1cc(N2CCOCC2)oc2c(-c3cccc4c3sc3ccccc34)cccc12 + O=C(CCCCCCC(=O)Nc1ccccc1)NO [Vorinostat] (partner 1 µM) ?
Result: 0.565

Ask: Which relative viability is reported for this molecule? O=c1cc(N2CCOCC2)oc2c(-c3cccc4c3sc3ccccc34)cccc12 + CS(=O)(=O)N1CCN(Cc2cc3nc(-c4cccc5[nH]ncc45)nc(N4CCOCC4)c3s2)CC1 [Pictilisib] (partner 1 µM)
Result: 0.484
